tested on: MDR1; assay: Blood-brain-barrier (BBB) penetration potential via MDCK-MDR1 permeability assay; conditions: dog, MDCK-MDR1, pH 7.4, MDCK-MDR1: Efflux, efflux ratio
The label depends only on efflux ratio at 120 min, 5 μM: fulfilled if it is at least 40, not fulfilled if it is smaller.

Entry Cn1cnc2cc(-c3ccc(N(C4CC4)[C@H]4C[C@@H]5CC[C@@H](N5)[C@H]4F)nn3)c(O)cc2c1=O [Compound 56B] : is its efflux ratio at 120 min, 5 μM no less than 40?
fulfilled

Given CC(=O)N(C)c1ccc(-c2ccc(N(C)[C@H]3C[C@@H]4CC[C@@H](N4)[C@H]3F)nn2)c(O)c1 [Compound 35B] , state whether its efflux ratio at 120 min, 5 μM is at least 40.
fulfilled

Does the reported efflux ratio at 120 min, 5 μM for Cc1ccc(-c2ccc(-c3ccc(N(C)[C@H]4C[C@@H]5CCC[C@@H](N5)[C@H]4F)nn3)c(O)c2)nn1 [Compound 27B] fall at or above the 40 mark?
not fulfilled

Hello, I need to know if CN(c1ccc(-c2cc3nccnc3cc2O)nn1)[C@@H]1C[C@H]2CC[C@H](N2)[C@@H]1F [Compound 88A] has measured efflux ratio at 120 min, 5 μM not below 40. Thanks!
not fulfilled

Entry Cc1cnc(-c2ccc(-c3ccc(N(C)[C@@H]4C[C@H]5CCC[C@H](N5)[C@@H]4F)nn3)c(O)c2)o1 [Compound 16A] : is its efflux ratio at 120 min, 5 μM no less than 40?
not fulfilled

Reported efflux ratio at 120 min, 5 μM reaches at least 40 for CN(c1ccc(-c2cc3cccnc3cc2O)nn1)[C@@H]1C[C@H]2CC(F)(F)[C@@H](C1)N2 [Compound 45A] ?
not fulfilled

efflux ratio at 120 min, 5 μM >= 40 for CN(c1ccc(-c2cc3ccncc3cc2O)nn1)[C@@H]1C[C@H]2CC[C@H](N2)[C@@H]1F (single isomer, unassigned) [Compound 87A] ?
not fulfilled

###

system: MDR1 (P-gp); assay: Blood-brain-barrier (BBB) penetration potential via MDCK-MDR1 permeability assay; conditions: dog, MDCK-MDR1, pH 7.4, MDCK-MDR1: Papp B-A, B-A direction
Endpoint: Papp B→A at 120 min, 5 μM (×10⁻⁶ cm/s)
Give the quantity in ×10⁻⁶ cm/s, number only.

Give the measured Papp B→A at 120 min, 5 μM for CN(c1ccc(-c2cc3ncn(CC(F)(F)F)c(=O)c3cc2O)nn1)[C@H]1C[C@@H]2CC[C@@H](N2)[C@H]1F [Compound 81B]
54.6

Note down Papp B→A at 120 min, 5 μM recorded for CCN(c1ccc(-c2ccc(-c3cn[nH]c3)cc2O)nn1)[C@@H]1C[C@H]2CC[C@H](N2)[C@@H]1F [Compound 12A]
23.6

Please report the measured Papp B→A at 120 min, 5 μM for C#Cc1ccc(-c2ccc(N(C)[C@@H]3C[C@H]4CC[C@H](N4)[C@@H]3F)nn2)c(O)c1 [Compound 10A]
19

// Input: CN(c1ccc(-c2ccc(C#N)cc2O)nn1)[C@@H]1C[C@H]2CC[C@H](N2)[C@@H]1F [Compound 38A] . Output its Papp B→A at 120 min, 5 μM only.
39.2

###

tested on: MDR1-MDCK cell monolayers; conditions: dog, MDCK-MDR1, 120 min, 5 μM, pH 7.4
Endpoint: MDCK-MDR1: % Recov A-B (%)
Write the answer as a number in %, unit excluded.

Supply reported MDCK-MDR1: % Recov A-B belonging to this compound: CN(c1ccc(-c2ccc(Oc3cnn(C)c3)cc2O)nn1)[C@H]1C[C@@H]2CC[C@@H](N2)[C@H]1F (single isomer, unassigned) [Compound 91B]
106

Provide one value: measured MDCK-MDR1: % Recov A-B of CN(c1ccc(-c2ccc(Oc3nccn3C)cc2O)nn1)[C@@H]1C[C@H]2CC[C@H](N2)[C@@H]1F (single isomer, unassigned) [Compound 123A]
97

Determine from records and report MDCK-MDR1: % Recov A-B for CN(c1ccc(-c2cnc(C#N)cc2O)nn1)[C@@H]1C[C@H]2CC[C@H](N2)[C@@H]1F (single isomer, unassigned) [Compound 71A]
88

Complete the entry with MDCK-MDR1: % Recov A-B for O=C(c1cc2cc(O)c(-c3ccc(N(C4CC4)[C@@H]4C[C@H]5CC[C@H](N5)[C@@H]4F)nn3)cc2o1)N1CCC1 [Compound 57A]
89

Fill in reported MDCK-MDR1: % Recov A-B for this entry: CN(C)C(=O)c1cc(O)c(-c2ccc(N(C)[C@H]3C[C@@H]4CC[C@H]([C@H]3F)N4C)nn2)cc1F (single isomer, unassigned) [Compound 104B]
99

Give a short answer stating reported MDCK-MDR1: % Recov A-B for CN1[C@H]2CC[C@@H]1[C@@H](F)[C@@H](N(c1ccc(-c3cc4oc(C(=O)N5CCC5)cc4cc3O)nn1)C1CC1)C2 (single isomer, unassigned) [Compound 92B] .
94
